Test summary: Human HepG2 cell viability assay in 384 well format
Assay type: toxicity, cell-based
Design: dose 125 nL, time 70.5 hour; concentration not given beside the values
Test conditions: HepG2 cells, read-out: Inhibition
Give cytotoxicity at 70.5 h for every item shown.
Answers are plain numbers, in %.

Check out these entries, answers already filled in.
>>> value("CC(C)Cn1c(=O)n(CCCn2cccn2)c2cc(C(=O)O)cnc21")
-10.8
>>> value("COc1ccc(Cl)cc1CS(=O)(=O)CC(=O)NC(C)CCC(C)C (stereo unspecified)")
-11.8
>>> value("CN(C)C(=O)c1cn[nH]c1C1CCCN1Cc1nccn1C (stereo unspecified)")
22.5
>>> value("Cc1nn(C)c(C)c1OCC(=O)NCC(O)c1ccccc1F (stereo unspecified)")
0.771
>>> value("O=c1cc(Cn2cncn2)nc2n1CCCN(Cc1ccc(F)cc1)C2")
0.75
>>> value("Cc1cnc(C)c(-c2cc(O)c3c(c2)CN(c2ncccn2)CCO3)n1")
48.2
>>> value("CC(C(=O)NCc1ccc(F)cc1)N(C)CCN1CCOCC1 (stereo unspecified)")
24.4
>>> value("CNS(=O)(=O)c1ccc(C(=O)NC2CCOc3ccccc32)o1 (stereo unspecified)")
-1.45
>>> value("CC(OCC1CC1)C(=O)N1CCCN(Cc2nccn2C)CC1 (stereo unspecified)")
-11.2
>>> value("Cc1cc(C(=O)N2CCN(c3nc4c(C(C)C)cccc4s3)CC2)no1")
3.44

Here's the next entry for you.
stdin: Query cytotoxicity at 70.5 h for Fc1cccnc1CN1CCCCC1c1ccn2ccnc2n1 (stereo unspecified)
stdout: 6.23
